tested on: SF-268 CNS; test: NCI tumour cell line growth inhibition, 48 h; in the data active means GI50 below about 0.43 µM; inactive means the rest
Outcomes: active, inactive

1. COC1=C(C)C(=O)c2c(c(CCCl)c3n2CCC3O)C1=O (configuration not stated) : inactive
2. CCOC(=O)c1c(C)n(Cc2ccccc2)c2c1cc(O)c1[nH]c(Cc3ccccc3)nc12 : inactive
3. N#Cc1c(Br)n(C2OC(CO)C(O)C2O)c2ncnc(N)c12 (configuration not stated) : inactive
4. Cc1cc(S(=O)(=O)/N=C/N(C)C)c(SC(=O)c2ccc(Cl)cc2)cc1Cl : inactive
5. O=C(CN1CCN(c2cc3c(cc2F)c(=O)c(C(=O)O)cn3C2CC2)CC1)Nc1nc(-c2ccc(Cl)cc2)cs1 : inactive
6. CCCCCCNC(=O)Oc1ccc(/C(=C(/C)Cc2ccc(OC)cc2)c2ccc(OCCCN(C)C)cc2)cc1 : inactive
7. N[C@@H]1C(=O)N2C(C(=O)OC(c3ccccc3)c3ccccc3)=C(CCl)CS[C@H]12 : inactive
8. Cc1ccc(/C=C2\CN(C(=O)C(Cl)Cl)C/C(=C\c3ccc(C)cc3)C2=O)cc1 : active
9. Cc1ccc(C(NC(=O)c2ccccc2)c2ccc3cccnc3c2O)cc1 (configuration not stated) : active
10. Cn1nc(-c2ccc(Cl)cc2)nc2c(=O)n(C)c(=O)nc1-2 : inactive
11. CCC(c1ccc(OC)cc1)C(CC)c1ccc(O)c(CN2CCN(C)CC2)c1 (configuration not stated) : inactive
12. Cc1cc2cc3ccc(N(C)C)cc3nc2cc1N : inactive
13. COc1ccc2c(C3(c4cn(C)c5cc(OC)ccc45)C(=O)Nc4ccc(Cl)cc43)cn(C)c2c1 : inactive
14. COc1cccc(/C=N/NC(=S)NC2CC3CCC2C3)c1O (configuration not stated) : inactive
15. Nc1cc(O)ccc1N=Nc1ccc(-c2nc3ccccc3[nH]2)cc1 : inactive
16. CC(C)N1CCN(Cc2ccc3c(NNC(=O)c4ccccc4)nc4cc(F)ccc4n23)CC1 : active
17. COc1cccc(-c2ccc3c(c2)C2CCN(Cc4ccccc4)C3C2)c1 (configuration not stated) : inactive
18. CC(=O)c1c(CN(C)c2ccccc2)n([O-])c2ccccc2[n+]1=O : inactive
19. COc1ccc2c(c1)CC[C@@H]1[C@@H]2CC[C@]2(C)[C@@H](NC(=O)/C=C/c3ccc(O)c(O)c3)CC[C@@H]12 : inactive
20. Oc1ccc(O)c(-c2cc(-c3ccc(Cl)cc3)nn2-c2ccccc2)c1 : inactive
21. CN(Cc1cccc(F)c1)c1ccc(CO)c(Cl)c1 : inactive
22. COc1ccc(S(=O)(=O)NC2=NCCN2C(=S)SN2CCn3c2nsc3=S)cc1 : inactive

----------
system: T-47D breast; assay: NCI tumour cell line growth inhibition, 48 h; in the data active = GI50 below about 0.43 µM; inactive = the rest
Classes used: true (active), false (inactive)

1) COc1ccc2c(c1)CC[C@@H]1[C@@H]2CC[C@]2(C)[C@@H](NC(=O)/C=C/c3ccc(O)c(O)c3)CC[C@@H]12 : false
2) CC1=CC(=O)C(C(C)C)=CC1=Nc1cc(Br)c(O)c(Br)c1 : false
3) CCOC(=O)c1c(C)n(Cc2ccccc2)c2c1cc(O)c1[nH]c(Cc3ccccc3)nc12 : false
4) CC(=O)N1N=C(c2ccc(Nc3ccnc4cc(Cl)ccc34)cc2)CC1c1ccc(Cl)cc1 (stereo unspecified) : false
5) COc1ccc(C(c2ccc(OCCN(C)C)cc2)c2cc3ccccc3c3ccccc23)cc1 (stereo unspecified) : false
6) Cn1nc(-c2ccc(Cl)cc2)nc2c(=O)n(C)c(=O)nc1-2 : false
7) Nc1nc(N)c(C=Nc2ccc(Br)cc2)c(Nc2ccc(Br)cc2)n1 : false
8) COc1cccc2c1-c1c(c3ccc([N+](=O)[O-])cc3c(=O)n1CCCN)C2=O : false
9) COc1cccc(-c2nn(-c3ccccc3)cc2-c2ccnc(NCCNC(=O)Nc3cccc(C(F)(F)F)c3)c2)c1 : false
10) Cc1cc(Nc2nc(-c3cccnc3)nc3ccccc23)n[nH]1 : false
11) CC(C)N1CCN(Cc2ccc3c(NNC(=O)c4ccccc4)nc4cc(F)ccc4n23)CC1 : true
12) COc1cccc(-c2ccc3c(c2)C2CCN(Cc4ccccc4)C3C2)c1 (stereo unspecified) : false
13) COc1cc(-c2cc(-c3ccc(Nc4ccnc5cc(Cl)ccc45)cc3)nc(N3CCOCC3)n2)cc(OC)c1OC : false
14) O=C(CN1CCN(c2cc3c(cc2F)c(=O)c(C(=O)O)cn3C2CC2)CC1)Nc1nc(-c2ccc(Cl)cc2)cs1 : false
15) CCOc1cc(Br)c(C(C)NC(=O)c2cccc(OC)c2)cc1OCC (stereo unspecified) : false
16) CCCCCCNC(=O)Oc1ccc(/C(=C(/C)Cc2ccc(OC)cc2)c2ccc(OCCCN(C)C)cc2)cc1 : false

----------
system: COLO 205 colon; experiment: NCI tumour cell line growth inhibition, 48 h
testReadout: TGI

1) COC12CCCN1c1ccn(Cc3ccccc3)c(=O)c1C2=O (stereo not drawn) : > 100 µM
2) C=C1C(=O)O[C@H]2[C@H]1CC/C(COC(=O)CCSCCC(=O)OC/C1=C/CC[C@@]3(C)O[C@H]3[C@H]3OC(=O)C(=C)[C@@H]3CC1)=C\CC[C@@]1(C)O[C@@H]21 : 1.97 µM
3) CN(C)c1ccc(C=C2C(=O)N(c3ccccc3)N(c3ccccc3)C2=O)cc1 : > 100 µM

----------
test system: MCF7 breast; assay: NCI tumour cell line growth inhibition, 48 h; in the data active = GI50 below about 0.43 µM; inactive = the rest
Possible outcomes: 1.0 = active, 0.0 = inactive

1) Cc1cc2cc3ccc(N(C)C)cc3nc2cc1N : 1.0
2) COc1ccc2c(c1)CC[C@@H]1[C@@H]2CC[C@]2(C)[C@@H](NC(=O)/C=C/c3ccc(O)c(O)c3)CC[C@@H]12 : 0.0
3) CCC(c1ccc(OC)cc1)C(CC)c1ccc(O)c(CN2CCN(C)CC2)c1 (stereo not given) : 0.0
4) CCOC(=O)c1c(C)n(Cc2ccccc2)c2c1cc(O)c1[nH]c(Cc3ccccc3)nc12 : 0.0
5) Cc1ccc(/C=C2\CN(C(=O)C(Cl)Cl)C/C(=C\c3ccc(C)cc3)C2=O)cc1 : 1.0

----------
tested on: HOP-62 NSCLC; assay: NCI tumour cell line growth inhibition, 48 h
testReadout: TGI

1. CCOC(=O)c1c(-c2ccc(Cl)cc2)c(C#N)c(=S)n(C2OC(COC(C)=O)C(OC(C)=O)C(OC(C)=O)C2OC(C)=O)c1-c1ccccc1 (stereo not given) : > 100 µM
2. Cc1ccc(C(=O)N(Cc2ccccc2)Cc2ccccc2)cc1N=NN(C)C : 90 µM
3. COC(=O)[C@H]1NC(=O)CCSSC1(C)C : > 100 µM
4. N[C@@H]1C(=O)N2C(C(=O)OC(c3ccccc3)c3ccccc3)=C(CCl)CS[C@H]12 : > 100 µM
5. Cc1ccc2c(=O)c(C(=O)Nn3c(C)csc3=S)c[nH]c2n1 : > 100 µM

----------
List of GI50 tested on MDA-MB-435.
testReadout: GI50

1. Nc1ccccc1.[C-]#[O+].[C-]#[O+].[C-]#[O+].[C-]#[O+].[C-]#[O+].[Cr] : 3670 nM
2. O=[N+]([O-])c1ccc(Oc2nc(Nc3ccc(O[C@H]4CO[C@H]5[C@@H]4OC[C@@H]5O)c(Cl)c3)ncc2F)c(Cl)c1 : 1200 nM
3. COc1cc2c(cc1OC)C(Sc1ccc(SC)cc1)c1c(nc(N)c(C#N)c1N)O2 (centres undefined) : 1750 nM
4. COc1ccc(S(=O)(=O)NC2=NCCN2C(=S)SN2CCn3c2nsc3=S)cc1 : 14800 nM

----------
tested on: MALME-3M melanoma; assay: NCI tumour cell line growth inhibition, 48 h
Items are presented alongside their recorded TGI.
testReadout: TGI

1) O=[N+]([O-])c1ccc(Cl)c(C2CC(c3cccc4ccccc34)=Nc3ccccc3S2)c1 (centres undefined) : > 100 µM
2) Cc1ccc(/C=C2\CN(C(=O)C(Cl)Cl)C/C(=C\c3ccc(C)cc3)C2=O)cc1 : 2.04 µM
3) CCN(CC)c1ccc(N=Nc2ccc([N+](=O)[O-])cc2OC(=O)/C=C/c2ccccc2)c(OC(=O)/C=C/c2ccccc2)c1 : > 100 µM
4) CCO[C@@]1(COCc2ccccc2)OC(=O)C[C@@H]1N1C(=O)OC[C@@H]1c1ccccc1 : > 100 µM
5) Cc1cn(C2C=CC(CO)O2)c(=O)[nH]c1=O (centres undefined) : > 1000 µM
6) CSC1C(=O)Nc2ccc3ccccc3c21 (centres undefined) : > 100 µM
7) CC(=O)c1ccccc1NCC(=O)Nn1cnc2ccc(S(=O)(=O)Nc3ccccc3C(C)=O)cc2c1=O : > 100 µM
8) CCOP(=O)(OCC)C(c1ccccc1)N(C(=O)NC(F)(F)F)c1cccc(F)c1 (centres undefined) : > 100 µM
9) O=S(OC12CC3CC(CC(C3)C1)C2)c1cc(Cl)cc(Cl)c1OCc1ccccc1 (centres undefined) : > 100 µM
